study.target: T1, B-cat-Halo (UniProt P35222 1-781, HaloTag NanoBRET 618 Ligand bound to the HaloTag in the assay)
T1 construct: Transfected into HEK293 cells for the NanoBRET assay; intracellular; also called beta-catenin HaloTag fusion; not shown: HaloTag
T1 sequence (looked up): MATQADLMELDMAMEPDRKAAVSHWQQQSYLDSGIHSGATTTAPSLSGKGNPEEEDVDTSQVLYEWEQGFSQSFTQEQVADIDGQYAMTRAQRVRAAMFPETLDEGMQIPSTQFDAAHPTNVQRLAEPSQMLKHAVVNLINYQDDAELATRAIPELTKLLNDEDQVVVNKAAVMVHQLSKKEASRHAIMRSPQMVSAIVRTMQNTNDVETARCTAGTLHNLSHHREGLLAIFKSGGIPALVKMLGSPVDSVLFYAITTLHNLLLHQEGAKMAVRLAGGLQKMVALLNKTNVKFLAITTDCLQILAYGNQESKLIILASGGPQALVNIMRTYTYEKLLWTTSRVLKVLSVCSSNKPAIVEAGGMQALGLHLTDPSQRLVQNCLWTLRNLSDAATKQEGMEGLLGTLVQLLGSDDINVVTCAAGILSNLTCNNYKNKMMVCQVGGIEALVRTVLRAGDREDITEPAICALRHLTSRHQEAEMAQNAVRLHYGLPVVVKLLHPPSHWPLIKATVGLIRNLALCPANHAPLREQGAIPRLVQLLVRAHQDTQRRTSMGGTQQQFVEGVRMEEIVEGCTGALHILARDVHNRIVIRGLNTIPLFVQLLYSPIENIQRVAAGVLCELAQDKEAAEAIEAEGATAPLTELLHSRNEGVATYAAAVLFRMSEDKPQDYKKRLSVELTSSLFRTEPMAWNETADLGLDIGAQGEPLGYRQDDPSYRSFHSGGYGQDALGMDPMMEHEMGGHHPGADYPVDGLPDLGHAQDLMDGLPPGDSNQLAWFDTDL
test.method.notes: NanoBRET absolute IC50 in HEK293 cells; Bcat-Halo, competitor TCF4-Luc
Starred links: 1 amine or outer side, 2 acyl side, 3 side chain; linkers in the order of their positions; H or OH if unused. Positions of bridges follow the written chain, without caps; N, C: chain ends. Non-standard residues stand in square brackets, D forms with d. Primed or numbered codes have the meaning given here. B5(4) = 2,2-bis(4-pentenyl)glycine = 2-amino-2-(pent-4-en-1-yl)hept-6-enoic acid (stitching residue), C=CCCCC(CCCC=C)(N[*:1])C(=O)[*:2]; Bta = N[C@@H](Cc1csc2ccccc12)C(=O)O; αAllylPro = C=CC[C@@]1(C(=O)O)CCCN1; S8 = C=CCCCCCC[C@](C)(N)C(=O)O
readout.label: pIC50
Scale note: pIC50 = -log10(concentration in M).

Which pIC50 is listed for Ac-[αAllylPro]DL[B5(4)]DEAAFQ[S8]F[Bta]Q-NH2 (staple 1-4, 4-11) [I-1458] ?
4.74
